Attribution: patent US6777440B2

measurement_type: melting point

Guide cases for melting point, answers given:
{"smiles_representation": "CON(Cc1ccc(F)cc1F)C(=O)/C=C1\\OC(C)(C)OC1=O", "result": "120 to 125 °C"}
{"smiles_representation": "CON(Cc1ccc(C(=O)O)cc1)C(=O)/C=C1\\OC(C)(C)OC1=O", "result": "217 to 219 °C"}
{"smiles_representation": "CON(Cc1ccc(C(F)(F)F)cc1)C(=O)/C=C(\\O)C(=O)O", "result": "108 to 110 °C"}
{"smiles_representation": "CON(Cc1ccc(F)cc1Cl)C(=O)/C=C(\\O)C(=O)O", "result": "140 to 143 °C"}
{"smiles_representation": "CON(CCc1ccc(F)cc1)C(=O)/C=C1\\OC(C)(C)OC1=O", "result": "106 to 107 °C"}
{"smiles_representation": "CN(C)CCON(Cc1ccc(F)cc1)C(=O)/C=C1\\OC(C)(C)OC1=O", "result": "95 to 96 °C"}
{"smiles_representation": "CON(Cc1ccc(C)cc1)C(=O)/C=C1\\OC(C)(C)OC1=O", "result": "108 to 110 °C"}
{"smiles_representation": "CC1(C)OC(=O)/C(=C/C(=O)N(Cc2ccc(Cl)c(Cl)c2)OCc2ccccc2)O1", "result": "113 to 116 °C"}
{"smiles_representation": "CON(Cc1ccc(C(=O)O)cc1)C(=O)/C=C(\\O)C(=O)O", "result": "123 to 125 °C"}
{"smiles_representation": "CON(Cc1ccccc1C)C(=O)/C=C1\\OC(C)(C)OC1=O", "result": "96 to 97 °C"}

# context switch: different compound, same melting point
Looking for the measured melting point of `CON(Cc1ccc(C#N)cc1)C(=O)/C=C(\O)C(=O)O` , can you help?
135 to 137 °C (dec.)

----------
- measured_on: HIV-integrase (Human immunodeficiency virus type 1 group M subtype B)
- Construct: 0.26 ng of recombinant integrase was incubated with the beads
- method_description: HIV-integrase inhibition activity (SPA bead strand-transfer assay)
- Assay type: biochemical
- applied_conditions: 50 μM compound; recombinant integrase
measurement_type: inhibition at 50 µM

Guide cases for inhibition at 50 µM, answers given:
{"smiles_representation": "Cc1ccc(CNC(=O)CON(Cc2ccc(F)cc2)C(=O)/C=C(\\O)C(=O)O)cc1", "measurement_type": "inhibition at 50 µM", "result": "> 99%"}
{"smiles_representation": "O=C(CON(Cc1ccc(F)cc1)C(=O)/C=C(\\O)C(=O)O)NCc1ccc(Cl)cc1", "measurement_type": "inhibition at 50 µM", "result": "> 99%"}
{"smiles_representation": "O=C(O)CON(Cc1ccc(F)cc1)C(=O)/C=C(\\O)C(=O)O", "measurement_type": "inhibition at 50 µM", "result": "99.9%"}
{"smiles_representation": "COc1ccc(CN(OC)C(=O)/C=C(\\O)C(=O)O)cc1", "measurement_type": "inhibition at 50 µM", "result": "99%"}
{"smiles_representation": "O=C(CON(Cc1ccc(F)cc1)C(=O)/C=C(\\O)C(=O)O)NCc1ccc(C(F)(F)F)cc1", "measurement_type": "inhibition at 50 µM", "result": "> 99%"}
{"smiles_representation": "CC(C)CN(CC(C)C)C(=O)CON(Cc1ccc(F)cc1)C(=O)/C=C(\\O)C(=O)O", "measurement_type": "inhibition at 50 µM", "result": "> 99%"}
{"smiles_representation": "COC(=O)c1ccc(CN(OC)C(=O)C=C(O)C(=O)O)cc1", "measurement_type": "inhibition at 50 µM", "result": "96%"}

# context switch: different molecule, same inhibition at 50 µM
Looking for the measured inhibition at 50 µM of `CC(=O)N1CCCN(C(=O)CON(Cc2ccc(F)cc2)C(=O)/C=C(\O)C(=O)O)CC1` , can you help?
> 99%

----------
Overview of reported melting point across a group of molecules:

Guide cases for melting point, answers given:
{"molecule": "CCON(Cc1ccc(F)cc1)C(=O)/C=C(\\O)C(=O)O [Compound 12]", "result": "120 to 121 °C (dec.)"}
{"molecule": "CN(C)C(=O)CON(Cc1ccc(F)cc1)C(=O)/C=C(\\O)C(=O)O [Compound 22]", "result": "118 to 120 °C"}
{"molecule": "CC(C)CON(Cc1ccc(F)cc1)C(=O)/C=C(\\O)C(=O)O [Compound 13]", "result": "100 to 101 °C"}
{"molecule": "CCON(Cc1ccc(F)cc1)C(=O)/C=C1\\OC(C)(C)OC1=O", "result": "95 to 96 °C"}
{"molecule": "CC(C)(C)OC(=O)CON(Cc1ccc(Cl)c(Cl)c1)C(=O)/C=C1\\OC(C)(C)OC1=O", "result": "127 to 129 °C"}

Looking for the measured melting point of CON(Cc1ccc(F)cc1F)C(=O)/C=C(\O)C(=O)O [Compound 17] , can you help?
131 to 132 °C

Looking for the measured melting point of CC(C)(C)OC(=O)CON(Cc1ccc(F)cc1)C(=O)/C=C(\O)C(=O)O [Compound 20] , can you help?
73 °C (dec.)

Looking for the measured melting point of `CON(Cc1ccc(F)c(Br)c1)C(=O)/C=C1\OC(C)(C)OC1=O` , can you help?
117 to 119 °C

Looking for the measured melting point of `CON(Cc1ccc(C#N)cc1)C(=O)/C=C1\OC(C)(C)OC1=O` , can you help?
148 to 149 °C

Looking for the measured melting point of CON(Cc1ccc(Cl)c(Cl)c1)C(=O)/C=C1\OC(C)(C)OC1=O [Compound 4-B] , can you help?
119 to 120 °C

Looking for the measured melting point of CON(Cc1ccccc1C)C(=O)/C=C(\O)C(=O)O [Compound 15] , can you help?
85 to 87 °C (dec.)

Looking for the measured melting point of `CON(Cc1ccc(F)c(C)c1)C(=O)/C=C(\O)C(=O)O` , can you help?
120 to 122 °C

Looking for the measured melting point of `COC(=O)c1ccc(CN(OC)C(=O)/C=C2\OC(C)(C)OC2=O)cc1` , can you help?
120 °C

Looking for the measured melting point of `CON(Cc1ccccc1F)C(=O)/C=C1\OC(C)(C)OC1=O` , can you help?
109 to 111 °C

Looking for the measured melting point of CON(Cc1ccc(F)c(F)c1)C(=O)/C=C(\O)C(=O)O [Compound 11] , can you help?
127 to 129 °C

Looking for the measured melting point of CON(Cc1ccc(NC(C)=O)cc1)C(=O)/C=C(\O)C(=O)O [Compound 23] , can you help?
155 °C (dec.)

Looking for the measured melting point of CON(Cc1ccc(F)c(Cl)c1)C(=O)/C=C1\OC(C)(C)OC1=O [Compound 5-B] , can you help?
110 to 111 °C

Looking for the measured melting point of `CON(Cc1ccc(C)c(F)c1)C(=O)/C=C(\O)C(=O)O` , can you help?
99 °C

Looking for the measured melting point of `CC(C)CON(Cc1ccc(F)cc1)C(=O)/C=C1\OC(C)(C)OC1=O` , can you help?
105 to 106 °C

Looking for the measured melting point of `COc1ccc(CN(OC)C(=O)/C=C2\OC(C)(C)OC2=O)cc1` , can you help?
113 to 114 °C

----------
Overview of reported inhibition at 50 µM across a group of molecules:
- measured_on: HIV-integrase (Human immunodeficiency virus type 1 group M subtype B)
- Construct: 0.26 ng of recombinant integrase was incubated with the beads
- method_description: HIV-integrase inhibition activity (SPA bead strand-transfer assay)
- Assay type: biochemical
- applied_conditions: 50 μM compound; recombinant integrase
Respond numerically; units are % and should not be typed.

Guide cases for inhibition at 50 µM, answers given:
{"molecule": "CON(Cc1ccccc1)C(=O)/C=C(\\O)C(=O)O [Compound 1]", "reading_unit": "%", "inhibition at 50 µM": 99}
{"molecule": "CON(Cc1ccc(Cl)c(Cl)c1)C(=O)/C=C(\\O)C(=O)O [Compound 4]", "reading_unit": "%", "inhibition at 50 µM": 99.9}

# context switch: different molecule, same inhibition at 50 µM
Looking for the measured inhibition at 50 µM of CON(Cc1ccc(NC(C)=O)cc1)C(=O)/C=C(\O)C(=O)O [Compound 23] , can you help?
65

----------
Overview of reported melting point across a group of compounds:

{"smiles_representation": "CON(CCCc1ccc(F)cc1)C(=O)/C=C(\\O)C(=O)O", "melting point": "86 °C (dec.)"}

Looking for the measured melting point of `CON(CCCc1ccc(F)cc1)C(=O)/C=C1\OC(C)(C)OC1=O` , can you help?
90 to 91 °C

Looking for the measured melting point of `CON(Cc1ccc(C(F)(F)F)cc1)C(=O)/C=C1\OC(C)(C)OC1=O` , can you help?
110 °C

Looking for the measured melting point of `CC(C)(C)OC(=O)CON(Cc1ccc(F)cc1)C(=O)/C=C1\OC(C)(C)OC1=O` , can you help?
119 to 120 °C
